MEASUREMENT_LABEL: melting point

CHEMICAL_SMILES: O=CC(=Cc1ccc(OCc2ccc(Cl)cc2)cc1)C(C=O)=Cc1ccc(OCc2ccc(Cl)cc2)cc1
melting point: 208 to 209 °C

CHEMICAL_SMILES: O=CC(=Cc1ccc(OC(=O)c2ccccc2F)cc1)C(C=O)=Cc1ccc(OC(=O)c2ccccc2F)cc1
melting point: 197 to 199 °C

query: What value of melting point has been reported for the following compound? "O=CC(=Cc1cccc(Cl)c1)C(C=O)=Cc1cccc(Cl)c1"
result: 107 to 108 °C

query: What value of melting point has been reported for the following compound? "O=CC(=Cc1ccc(OC(=O)c2ccc(Br)cc2)cc1)C(C=O)=Cc1ccc(OC(=O)c2ccc(Br)cc2)cc1"
result: 223 to 225 °C

* * *

MEASUREMENT_LABEL: melting point

query: What value of melting point has been reported for the following molecule? "O=CC(=C\c1ccccc1)/C(C=O)=C/c1ccccc1"
result: 150 to 151 °C

query: What value of melting point has been reported for the following molecule? "COc1cc(C=C(C=O)C(C=O)=Cc2ccc(OC(C)C)c(OC)c2)ccc1OC(C)C"
result: 119 to 120 °C

query: What value of melting point has been reported for the following molecule? "O=CC(=Cc1ccccc1OCc1ccc(Br)cc1)C(C=O)=Cc1ccccc1OCc1ccc(Br)cc1"
result: 210 to 211 °C

query: What value of melting point has been reported for the following molecule? "O=CC(=Cc1cccc(OCc2ccc(Cl)cc2)c1)C(C=O)=Cc1cccc(OCc2ccc(Cl)cc2)c1"
result: 193 to 194 °C

* * *

Quick reference for melting point among some compounds

COMPOUND: O=CC(=Cc1ccc(Cl)cc1)C(C=O)=Cc1ccc(Cl)cc1 [Compound 9]
MEASUREMENT_LABEL: melting point
REPORTED: 172 to 173 °C

COMPOUND: O=CC(=Cc1ccccc1OCc1ccc(Cl)cc1)C(C=O)=Cc1ccccc1OCc1ccc(Cl)cc1 [Compound 17]
MEASUREMENT_LABEL: melting point
REPORTED: 186 to 187 °C

COMPOUND: COc1ccc(C=C(C=O)C(C=O)=Cc2ccc(OC)c(OC)c2)cc1OC [Compound 8]
MEASUREMENT_LABEL: melting point
REPORTED: 149 to 150 °C

COMPOUND: CCCOc1cccc(/C=C(C=O)/C(C=O)=C/c2cccc(OCCC)c2)c1 [Compound 20]
MEASUREMENT_LABEL: melting point
REPORTED: 93 to 94 °C

Proceed to the following item.
query: What value of melting point has been reported for the following compound? O=CC(=Cc1ccccc1Br)C(C=O)=Cc1ccccc1Br [Compound 4]
result: 194 to 195 °C

* * *

Quick reference for melting point among some molecules

See these solved cases before continuing.
CHEMICAL_SMILES: COc1cc(C=C(C=O)C(C=O)=Cc2ccc(O)c(OC)c2)ccc1O
melting point: 177 to 178 °C
//
CHEMICAL_SMILES: CC(C)Oc1ccccc1C=C(C=O)C(C=O)=Cc1ccccc1OC(C)C
melting point: 109 to 110 °C
//
CHEMICAL_SMILES: O=CC(=Cc1ccccc1OCc1ccc([N+](=O)[O-])cc1)C(C=O)=Cc1ccccc1OCc1ccc([N+](=O)[O-])cc1
melting point: 116 to 117 °C

query: What value of melting point has been reported for the following molecule? "CCCOc1ccccc1/C=C(C=O)/C(C=O)=C/c1ccccc1OCCC"
result: 109 to 110 °C
